pIC50: −log10 of the molar value.
Here we gather pIC50 data for SIK1 (Homo sapiens, UniProt P57059) reported by several publications.

Query (compound): `COc1cc(-c2cnc3cc(OCC4CCCC4)ccn23)cc(OC(F)F)c1C(=O)NC1CC1` ; field requested: pIC50 8.00 to 11.00

Next:
Query (compound): `CCCn1cc(-c2cc(C#N)c3c(-c4cc(OC)c(C(N)=O)c(OC(F)F)c4)n(C)nc3c2)cn1` ; field requested: pIC50 7.85

Query (compound): `COc1ccccc1-c1c[nH]c2ncc(-c3ccc(C)o3)cc12` ; field requested: pIC50 < 7.00

Query (compound): `COc1cc(-c2c3c(C#N)cc(-c4cnn(C[C@H](C)O)c4)cc3nn2C)cc(OC(F)F)c1C(=O)NCC1(F)CC1` ; field requested: pIC50 7.86

Query (compound): COc1cc(-c2cnc3cc(OCC4CCN(C)C4)ccn23)cc(OC(F)F)c1C(=O)NC1CC1 (centres unmarked) ; field requested: pIC50 7.00 to 8.00

Query (compound): CCN1CCCCC1COc1ccn2c(-c3cc(OC)c(C(=O)NC4CC4)c(OC(F)F)c3)cnc2c1 (centres unmarked) ; field requested: pIC50 6.30 to 7.00

Query (compound): `COc1cc(-c2cnn3cc(OCCN4CCOCC4)cnc23)cc2c1C(=O)N(CC(F)(F)F)CC2` ; field requested: pIC50 < 6.30

Query (compound): CCC(COc1ccn2c(-c3cc(OC)c(C(=O)NC4CC4)c(OC(F)F)c3)cnc2c1)N(C)C (centres unmarked) ; field requested: pIC50 6.30 to 7.00
